system: H1975; experiment: MTT assay, antiproliferative activity against H1975; format: cell-based, human; settings: Homo sapiens, NCI-H1975, 72 h
endpoint.label: pIC50
Remember the convention: pIC50 equals -log10 of concentration in molar.

Below are worked cases with known answers.
compound	experimental.result
O=C(/C=C/c1ccc2ccccc2c1)c1ccc(Nc2nc(-c3ccccc3)nc3ccccc23)cc1 [compound 19]	5.58
FC(F)(F)c1ccc(Nc2nc(-c3ccccc3)nc3ccccc23)cc1 [compound 11]	4.64
O=C(/C=C/c1ccc(Br)cc1)c1ccc(Nc2nc(-c3ccccc3)nc3ccccc23)cc1 [compound 18]	5.67

# input for lookup
pIC50 of Brc1ccc(Nc2nc(-c3ccccc3)nc3ccccc23)cc1 [compound 9] on H1975? 5.18

====

This section presents molecules with their documented melting point values.

Below are worked cases with known answers.
molecule	melting point
O=C(/C=C/c1ccc(Cl)cc1)c1ccc(Nc2nc(-c3ccccc3)nc3ccccc23)cc1 [compound 17]	263 to 267 °C
O=C(/C=C/c1ccc2ccccc2c1)c1ccc(Nc2nc(-c3ccccc3)nc3ccccc23)cc1 [compound 19]	281 to 286 °C
Brc1ccc(Nc2nc(-c3ccccc3)nc3ccccc23)cc1 [compound 9]	187 to 193 °C
c1ccc(-c2nc(Nc3cccc4ccccc34)c3ccccc3n2)cc1 [compound 15]	204 to 208 °C
FC(F)(F)c1ccc(Nc2nc(-c3ccccc3)nc3ccccc23)cc1 [compound 11]	190 to 195 °C

# input for lookup
Tell me the measured melting point of O=C(/C=C/c1ccc(F)cc1)c1ccc(Nc2nc(-c3ccccc3)nc3ccccc23)cc1 [compound 16] , please. 252 to 256 °C

====

system: A549; assay: MTT assay, antiproliferative activity against A549; assay type: cell-based, human; conditions: 72 h
endpoint.label: pIC50
Remember the convention: pIC50 equals -log10 of concentration in molar.

Tell me the measured pIC50 of O=c1[nH]cc(F)c(=O)[nH]1 [5-Fu, reference compound] , please. 5.29
